A collection of variants and their measured self-cleavage
B1: Hairpin Ribozyme (parent)
chain: GUCCUCUUUCACGUGCGCGUGAAAGAGAGAAGUGAACCAGAGAAACACACGUUGUGGUAUAUUACCUGGUA

variants of: B1; test: self-cleavage, relative activity (ratio to wild type); higher = more cleavage; co-transcriptional
Measurement Type: self-cleavage

>  <Mutation String>
C18A G25A

>  <Result>
0.681

$$$$
>  <Mutation String>
A11C U67G

>  <Result>
0.168

$$$$
>  <Mutation String>
U9G A64G

>  <Result>
0.478

$$$$
>  <Mutation String>
G1C A49U

>  <Result>
0.252

$$$$
>  <Mutation String>
U7A U55C

>  <Result>
0.175

$$$$
>  <Mutation String>
G34C A71C

>  <Result>
1.76

$$$$
>  <Mutation String>
A36U C48U

>  <Result>
0.0683

$$$$
>  <Mutation String>
C4U A59C

>  <Result>
0.126

$$$$
>  <Mutation String>
U33A U63A

>  <Result>
0.0514

$$$$
>  <Mutation String>
G15U U52C

>  <Result>
0.911

$$$$
>  <Mutation String>
C37G C46A

>  <Result>
0.174

$$$$
>  <Mutation String>
G34A U58G

>  <Result>
1.36

$$$$
>  <Mutation String>
G40C U63G

>  <Result>
0.135

$$$$
>  <Mutation String>
A11G A30G

>  <Result>
0.269

$$$$
>  <Mutation String>
G13C C16G

>  <Result>
0.407

$$$$
>  <Mutation String>
A36G C48U

>  <Result>
0.228

$$$$
>  <Mutation String>
A24G U53G

>  <Result>
0.591

$$$$
>  <Mutation String>
U9A U52A

>  <Result>
0.877

$$$$
>  <Mutation String>
A41G A71U

>  <Result>
0.733

$$$$
>  <Mutation String>
A11C C50G

>  <Result>
0.321

$$$$
>  <Mutation String>
G34U G54A

>  <Result>
1.3

$$$$
>  <Mutation String>
C3G G29A

>  <Result>
0.148

$$$$
